TESTED ON: Fab
MEASUREMENT DESCRIPTION: static binding capacity for Fab after 0.1 M NaOH for 24 h, relative to SBC of the same particles without alkali treatment
QUANTITY KIND: SBC retention ratio (%) after alkali treatment
# value in %; strip the unit string

Examples with their reported SBC retention ratio (%) after alkali treatment follow.
>>> measured_value("Recombinant immunoglobulin κ chain binding protein KBP2 (protein) KETPETPEEPKEEVTIKVNLIFADGRTQTATFKGTFEEATAEAYRYADLLAKVNGEYTADLEDGGYTINIKFAGKKETPETPEEPKEEVTIKVNLIFADGRTQTATFKGTFEEATAEAYRYADLLAKVNGEYTADLEDGGYTINIKFAGKKETPETPEEPKEEVTIKVNLIFADGRTQTATFKGTFEEATAEAYRYADLLAKVNGEYTADLEDGGYTINIKFAGKKETPETPEEPKEEVTIKVNLIFADGRTQTATFKGTFEEATAEAYRYADLLAKVNGEYTADLEDGGYTINIKFAGK")
46
>>> measured_value("Recombinant immunoglobulin κ chain binding protein KBP9 (protein, part only; not given: further domain copies and linkers, part only) chain, part: KETETEEPKEEVTIKVNLIFADGKTQTATFKGTFEEATAEAYRYADLLAKVNGEYTADLEDGGYTINIKFAGK")
42

Next binder, SBC retention ratio (%) after alkali treatment to be filled in.
For the binder Recombinant immunoglobulin κ chain binding protein KBP4 (protein) KETPETPEEPKEEVTIKVNLIFADGKTQTATFKGTFEEATAEAFRYADLLAKVNGEYTADLEDGGYTINIKFAGKKETPETPEEPKEEVTIKVNLIFADGKTQTATFKGTFEEATAEAFRYADLLAKVNGEYTADLEDGGYTINIKFAGKKETPETPEEPKEEVTIKVNLIFADGKTQTATFKGTFEEATAEAFRYADLLAKVNGEYTADLEDGGYTINIKFAGKKETPETPEEPKEEVTIKVNLIFADGKTQTATFKGTFEEATAEAFRYADLLAKVNGEYTADLEDGGYTINIKFAGK , what SBC retention ratio (%) after alkali treatment is on record?
49
